# assayedTarget: T1, hAng2 (Homo sapiens, UniProt O15123)
# T1 sequence (O15123 19-496): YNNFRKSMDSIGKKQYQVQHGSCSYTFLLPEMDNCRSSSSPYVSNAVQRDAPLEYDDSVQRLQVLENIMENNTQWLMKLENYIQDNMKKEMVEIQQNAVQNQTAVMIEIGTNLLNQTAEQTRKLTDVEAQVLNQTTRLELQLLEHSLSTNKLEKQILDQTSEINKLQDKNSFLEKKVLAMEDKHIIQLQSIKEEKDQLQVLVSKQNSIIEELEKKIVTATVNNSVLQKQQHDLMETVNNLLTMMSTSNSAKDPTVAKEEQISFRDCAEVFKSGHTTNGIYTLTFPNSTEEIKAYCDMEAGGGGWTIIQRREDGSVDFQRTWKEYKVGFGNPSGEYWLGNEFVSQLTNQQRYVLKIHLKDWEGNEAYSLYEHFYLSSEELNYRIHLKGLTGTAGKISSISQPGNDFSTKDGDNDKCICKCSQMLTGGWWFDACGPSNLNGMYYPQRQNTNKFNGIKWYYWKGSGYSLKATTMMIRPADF
# assaySummary: OCTET affinity of humanized anti-Ang2 antibodies against hAng2
# Type: binding
# conditionNotes: OCTET, antibody fixed on AR2G biosensor, hAng2 50-0 nM, 1:1 binding model
measurementKind: Kon (M⁻¹ s⁻¹)
One number for each entry, in M⁻¹ s⁻¹.

Worked examples, 6 molecules total:
molecule	Kon / M⁻¹ s⁻¹
2C8H41: humanized anti-Ang2 antibody from mouse 2C8; VH SEQ ID NO: 67, VL SEQ ID NO: 68 (antibody, V domains shown, VH; VL) VH: QVQLVQSGAEVKKPGASVKVSCKASGYSFTSYWMHWVKQAPGQGLEWIGMIDPSDSETRLNQKFKDKASMTRDTSTSTVYMELSSLRSEDTAVYYCARRFYYGSDWYFDVWGQGTLVTVSS VL: DIQLTQSPSFLSASVGDRVTITCKASQDVGTAVAWYQQKPGKAPKLLIYWASTRHTGVPSRFSGSGSGTEFTLTISSLQPEDFATYYCQQYSSYPLTFGQGTKVEIK	67000
2C8H52: humanized anti-Ang2 antibody from mouse 2C8; VH SEQ ID NO: 91, VL SEQ ID NO: 92 (antibody, V domains shown, VH; VL) VH: QVQLVQSGAEVKKPGASVKVSCKASGYSFTSYWMHWVKQAPGQGLEWIGMIDPSDSETRLNQKFKDKASLTVDTSTSTVYMELSSLRSEDTAVYYCARRFYYGSDWYFDVWGQGTLVTVSS VL: DIQLTQSPSFLSASVGDRVSITCKASQDVGTAVAWYQQKPGKAPKLLIYWASTRHTGVPDRFSGSGSGTEFTLTISSLQPEDFATYYCQQYSSYPLTFGQGTKVEIK	81900
2C8H42: humanized anti-Ang2 antibody from mouse 2C8; VH SEQ ID NO: 87, VL SEQ ID NO: 88 (antibody, V domains shown, VH; VL) VH: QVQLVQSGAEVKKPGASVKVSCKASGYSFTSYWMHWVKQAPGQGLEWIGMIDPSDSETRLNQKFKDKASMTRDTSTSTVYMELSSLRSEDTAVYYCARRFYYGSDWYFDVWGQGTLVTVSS VL: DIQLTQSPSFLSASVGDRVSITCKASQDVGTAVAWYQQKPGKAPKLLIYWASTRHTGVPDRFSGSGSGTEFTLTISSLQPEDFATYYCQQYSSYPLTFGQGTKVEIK	80600
2C8H12: humanized anti-Ang2 antibody from mouse 2C8; VH SEQ ID NO: 75, VL SEQ ID NO: 76 (antibody, V domains shown, VH; VL) VH: QVQLVQSGAEVKKPGASVKVSCKASGYTFTSYWMHWVRQAPGQGLEWMGMIDPSDSETRLNQKFKDRVTMTRDTSTSTVYMELSSLRSEDTAVYYCARRFYYGSDWYFDVWGQGTLVTVSS VL: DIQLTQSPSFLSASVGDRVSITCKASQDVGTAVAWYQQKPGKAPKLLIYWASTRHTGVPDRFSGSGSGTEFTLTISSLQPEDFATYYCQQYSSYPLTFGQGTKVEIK	95200
2C8H51: humanized anti-Ang2 antibody from mouse 2C8; VH SEQ ID NO: 71, VL SEQ ID NO: 72 (antibody, V domains shown, VH; VL) VH: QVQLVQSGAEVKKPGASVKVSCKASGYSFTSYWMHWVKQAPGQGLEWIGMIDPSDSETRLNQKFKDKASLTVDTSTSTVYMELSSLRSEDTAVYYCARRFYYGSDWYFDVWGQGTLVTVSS VL: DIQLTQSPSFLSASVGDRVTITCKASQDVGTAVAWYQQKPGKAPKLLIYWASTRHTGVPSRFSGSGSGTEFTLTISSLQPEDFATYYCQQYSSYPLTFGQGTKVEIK	70200
2C8H33: humanized anti-Ang2 antibody from mouse 2C8; VH SEQ ID NO: 103, VL SEQ ID NO: 104 (antibody, V domains shown, VH; VL) VH: QVQLVQSGAEVKKPGASVKVSCKASGYSFTSYWMHWVRQAPGQGLEWIGMIDPSDSETRLNQKFKDKASMTRDTSTSTVYMELSSLRSEDTAVYYCARRFYYGSDWYFDVWGQGTLVTVSS VL: DIQLTQSPSFLSASVGDRVSITCKASQDVGTAVAWYQQKPGKAPKLLIYWASTRHTGVPDRFSGSGSGTEFTLTISSLQPEDFADYFCQQYSSYPLTFGQGTKVEIK	89600

Record Kon per entry; entries follow.
1. 2C8H23: humanized anti-Ang2 antibody from mouse 2C8; VH SEQ ID NO: 99, VL SEQ ID NO: 100 (antibody, V domains shown, VH; VL) VH: QVQLVQSGAEVKKPGASVKVSCKASGYSFTSYWMHWVRQAPGQGLEWIGMIDPSDSETRLNQKFKDRVTMTRDTSTSTVYMELSSLRSEDTAVYYCARRFYYGSDWYFDVWGQGTLVTVSS VL: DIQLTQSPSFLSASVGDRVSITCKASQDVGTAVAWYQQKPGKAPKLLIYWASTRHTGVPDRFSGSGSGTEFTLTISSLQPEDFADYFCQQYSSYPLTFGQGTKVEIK
2. 2C8H22: humanized anti-Ang2 antibody from mouse 2C8; VH SEQ ID NO: 79, VL SEQ ID NO: 80 (antibody, V domains shown, VH; VL) VH: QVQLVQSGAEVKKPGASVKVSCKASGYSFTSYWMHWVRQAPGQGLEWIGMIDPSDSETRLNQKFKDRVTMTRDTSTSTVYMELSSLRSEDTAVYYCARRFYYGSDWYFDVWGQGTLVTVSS VL: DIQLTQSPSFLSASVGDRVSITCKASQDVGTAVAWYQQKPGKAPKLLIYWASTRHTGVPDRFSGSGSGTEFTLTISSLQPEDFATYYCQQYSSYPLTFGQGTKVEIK

A:
1: 79500; 2: 59600
